- PROCEDURE_SUMMARY: Stability test of analytes in rat plasma (QC samples)
- Type: physicochemical
- APPLIED_CONDITIONS: middle concentration, −80 °C for a week
- Procedure: Stability. To evaluate the stability of each component during analysis, QC samples at low, middle, and high concentrations (three samples for each concentration) were tested under different conditions, including placing QC samples in the autosampler at 4 °C for 24 h, at room temperature for 4 h, at −80 °C for a week, and three freeze-thaw cycles.
MEASURE_NAME: Long-Term Stability RE (%)
Give the quantity in %, number only.

Solved cases below.
O=C1C[C@@H](c2ccc(O)cc2)Oc2cc(O)ccc21 [LG, liquiritigenin]	0.58
CC1(C)[C@@H](O)CC[C@]2(C)[C@H]3C(=O)C=C4[C@@H]5C[C@@](C)(C(=O)O)CC[C@]5(C)CC[C@@]4(C)[C@]3(C)CC[C@@H]12 [GA, glycyrrhetinic acid]	5.44

Using the record for CC1(C)[C@@H](O[C@H]2O[C@H](C(=O)O)[C@@H](O)[C@H](O)[C@H]2O[C@@H]2O[C@H](C(=O)O)[C@@H](O)[C@H](O)[C@H]2O)CC[C@]2(C)[C@H]3C(=O)C=C4[C@@H]5C[C@@](C)(C(=O)O)CC[C@]5(C)CC[C@@]4(C)[C@]3(C)CC[C@@H]12 [GL, glycyrrhizin] , report its Long-Term Stability RE. 9.96

Using the record for O=C(/C=C/c1ccc(O)cc1)c1ccc(O)cc1O [ILG, isoliquiritigenin] , report its Long-Term Stability RE. 12.68

---

- PROCEDURE_SUMMARY: Pharmacokinetics in adjuvant-induced arthritis (AA) rats after oral administration of Zushima-Gancao extract (UHPLC-MS/MS of plasma)
- APPLIED_CONDITIONS: male, Sprague-Dawley, rat, plasma, po, 10 mL/kg
Known AUC(0-inf) of a selection of molecules
Give the quantity in ng·h/mL, number only.

O=c1ccc2ccc(O)cc2o1 [HDC, 7-hydroxycoumarin]	131
O=C1C[C@@H](c2ccc(O)cc2)Oc2cc(O)ccc21 [LG, liquiritigenin]	194
COc1cc2cc(Oc3ccc4ccc(=O)oc4c3)c(=O)oc2cc1O [DR, daphnoretin]	154

Using the record for O=c1ccc2ccc(O)c(O)c2o1 [DPH, daphnetin] , report its AUC(0-inf). 167

Using the record for CC1(C)[C@@H](O)CC[C@]2(C)[C@H]3C(=O)C=C4[C@@H]5C[C@@](C)(C(=O)O)CC[C@]5(C)CC[C@@]4(C)[C@]3(C)CC[C@@H]12 [GA, glycyrrhetinic acid] , report its AUC(0-inf). 4330

Using the record for O=C(/C=C/c1ccc(O)cc1)c1ccc(O)cc1O [ILG, isoliquiritigenin] , report its AUC(0-inf). 8.48

---

- PROCEDURE_SUMMARY: Pharmacokinetics in adjuvant-induced arthritis (AA) rats after oral administration of Zushima-Gancao extract (UHPLC-MS/MS of plasma)
- APPLIED_CONDITIONS: male, Sprague-Dawley, rat, in vivo, po, 10 mL/kg
MEASURE_NAME: AUC(0-inf) (ng·h/mL)
Give the quantity in ng·h/mL, number only.

Using the record for O=C(/C=C/c1ccc(O[C@@H]2O[C@H](CO)[C@@H](O)[C@H](O)[C@H]2O)cc1)c1ccc(O)cc1O [ILQ, isoliquiritin] , report its AUC(0-inf). 4.11

---

- PROCEDURE_SUMMARY: Pharmacokinetics in adjuvant-induced arthritis (AA) rats after oral administration of Zushima-Gancao extract (UHPLC-MS/MS of plasma)
- APPLIED_CONDITIONS: male, Sprague-Dawley, rat, in vivo, po, 10 mL/kg
MEASURE_NAME: AUC(0-t)

Using the record for "O=C(/C=C/c1ccc(O[C@@H]2O[C@H](CO)[C@@H](O)[C@H](O)[C@H]2O)cc1)c1ccc(O)cc1O" , report its AUC(0-t). 4.04 ng·h/mL

---

- PROCEDURE_SUMMARY: Pharmacokinetics in adjuvant-induced arthritis (AA) rats after oral administration of Zushima-Gancao extract (UHPLC-MS/MS of plasma)
- APPLIED_CONDITIONS: male, Sprague-Dawley, rat, plasma, po, 10 mL/kg
Known log10 Tmax of a selection of molecules
Use the decimal logarithm of Tmax (h).

O=c1ccc2ccc(O)c(O)c2o1	-0.70
COc1cc2cc(Oc3ccc4ccc(=O)oc4c3)c(=O)oc2cc1O	-0.38

Using the record for O=c1ccc2ccc(O)cc2o1 [HDC, 7-hydroxycoumarin] , report its log10 Tmax. -0.66

Using the record for "O=C1C[C@@H](c2ccc(O[C@@H]3O[C@H](CO)[C@@H](O)[C@H](O)[C@H]3O)cc2)Oc2cc(O)ccc21" , report its log10 Tmax. -0.68

Using the record for "CC1(C)[C@@H](O)CC[C@]2(C)[C@H]3C(=O)C=C4[C@@H]5C[C@@](C)(C(=O)O)CC[C@]5(C)CC[C@@]4(C)[C@]3(C)CC[C@@H]12" , report its log10 Tmax. 0.97

Using the record for "O=C1C[C@@H](c2ccc(O)cc2)Oc2cc(O)ccc21" , report its log10 Tmax. 0.67

Using the record for "CC1(C)[C@@H](O[C@H]2O[C@H](C(=O)O)[C@@H](O)[C@H](O)[C@H]2O[C@@H]2O[C@H](C(=O)O)[C@@H](O)[C@H](O)[C@H]2O)CC[C@]2(C)[C@H]3C(=O)C=C4[C@@H]5C[C@@](C)(C(=O)O)CC[C@]5(C)CC[C@@]4(C)[C@]3(C)CC[C@@H]12" , report its log10 Tmax. 0.68

Using the record for "O=C(/C=C/c1ccc(O)cc1)c1ccc(O)cc1O" , report its log10 Tmax. 0.57

---

- PROCEDURE_SUMMARY: Stability test of analytes in rat plasma (QC samples)
- Assay type: physicochemical
- APPLIED_CONDITIONS: low concentration, room temperature for 4 h
MEASURE_NAME: Short-Term Stability RE (%)
Give the quantity in %, number only.

O=C1C[C@@H](c2ccc(O)cc2)Oc2cc(O)ccc21 [LG, liquiritigenin]	9.76

Using the record for O=C(/C=C/c1ccc(O[C@@H]2O[C@H](CO)[C@@H](O)[C@H](O)[C@H]2O)cc1)c1ccc(O)cc1O [ILQ, isoliquiritin] , report its Short-Term Stability RE. 9.08

Using the record for CC1(C)[C@@H](O)CC[C@]2(C)[C@H]3C(=O)C=C4[C@@H]5C[C@@](C)(C(=O)O)CC[C@]5(C)CC[C@@]4(C)[C@]3(C)CC[C@@H]12 [GA, glycyrrhetinic acid] , report its Short-Term Stability RE. 2.08

Using the record for O=c1ccc2ccc(O)c(O)c2o1 [DPH, daphnetin] , report its Short-Term Stability RE. −7.83

---

- PROCEDURE_SUMMARY: Pharmacokinetics in adjuvant-induced arthritis (AA) rats after oral administration of Zushima-Gancao extract (UHPLC-MS/MS of plasma)
- APPLIED_CONDITIONS: male, Sprague-Dawley, rat, plasma, po, 10 mL/kg
MEASURE_NAME: Cmax (ng/mL)
Give the quantity in ng/mL, number only.

Solved cases below.
O=c1ccc2ccc(O)cc2o1 [HDC, 7-hydroxycoumarin]	179
CC1(C)[C@@H](O)CC[C@]2(C)[C@H]3C(=O)C=C4[C@@H]5C[C@@](C)(C(=O)O)CC[C@]5(C)CC[C@@]4(C)[C@]3(C)CC[C@@H]12	418
O=c1ccc2ccc(O)c(O)c2o1	201
CC1(C)[C@@H](O[C@H]2O[C@H](C(=O)O)[C@@H](O)[C@H](O)[C@H]2O[C@@H]2O[C@H](C(=O)O)[C@@H](O)[C@H](O)[C@H]2O)CC[C@]2(C)[C@H]3C(=O)C=C4[C@@H]5C[C@@](C)(C(=O)O)CC[C@]5(C)CC[C@@]4(C)[C@]3(C)CC[C@@H]12	24.9

Using the record for "O=C(/C=C/c1ccc(O)cc1)c1ccc(O)cc1O" , report its Cmax. 1.92

Using the record for "O=C1C[C@@H](c2ccc(O)cc2)Oc2cc(O)ccc21" , report its Cmax. 29.7

Using the record for "COc1cc2cc(Oc3ccc4ccc(=O)oc4c3)c(=O)oc2cc1O" , report its Cmax. 7.06

Using the record for "O=C1C[C@@H](c2ccc(O[C@@H]3O[C@H](CO)[C@@H](O)[C@H](O)[C@H]3O)cc2)Oc2cc(O)ccc21" , report its Cmax. 30.1

---

- PROCEDURE_SUMMARY: Pharmacokinetics in adjuvant-induced arthritis (AA) rats after oral administration of Zushima-Gancao extract (UHPLC-MS/MS of plasma)
- APPLIED_CONDITIONS: male, Sprague-Dawley, rat, plasma, po, 10 mL/kg
MEASURE_NAME: half-life (min)
Give the quantity in min, number only.

Using the record for O=c1ccc2ccc(O)cc2o1 [HDC, 7-hydroxycoumarin] , report its half-life. 151

---

- PROCEDURE_SUMMARY: Stability test of analytes in rat plasma (QC samples)
- Assay type: physicochemical
- APPLIED_CONDITIONS: middle concentration, autosampler at 4 °C for 24 h
Known 24 h Stability RE of a selection of molecules
Give the quantity in %, number only.

COc1cc2cc(Oc3ccc4ccc(=O)oc4c3)c(=O)oc2cc1O	−11.33
CC1(C)[C@@H](O)CC[C@]2(C)[C@H]3C(=O)C=C4[C@@H]5C[C@@](C)(C(=O)O)CC[C@]5(C)CC[C@@]4(C)[C@]3(C)CC[C@@H]12	14.1
CC1(C)[C@@H](O[C@H]2O[C@H](C(=O)O)[C@@H](O)[C@H](O)[C@H]2O[C@@H]2O[C@H](C(=O)O)[C@@H](O)[C@H](O)[C@H]2O)CC[C@]2(C)[C@H]3C(=O)C=C4[C@@H]5C[C@@](C)(C(=O)O)CC[C@]5(C)CC[C@@]4(C)[C@]3(C)CC[C@@H]12	11.8
O=C(/C=C/c1ccc(O[C@@H]2O[C@H](CO)[C@@H](O)[C@H](O)[C@H]2O)cc1)c1ccc(O)cc1O	5.33
O=C1C[C@@H](c2ccc(O[C@@H]3O[C@H](CO)[C@@H](O)[C@H](O)[C@H]3O)cc2)Oc2cc(O)ccc21	3.31

Using the record for "O=C(/C=C/c1ccc(O)cc1)c1ccc(O)cc1O" , report its 24 h Stability RE. 10.08

Using the record for "O=c1ccc2ccc(O)c(O)c2o1" , report its 24 h Stability RE. −13.73

Using the record for O=c1ccc2ccc(O)cc2o1 [HDC, 7-hydroxycoumarin] , report its 24 h Stability RE. −0.85

Using the record for "O=C1C[C@@H](c2ccc(O)cc2)Oc2cc(O)ccc21" , report its 24 h Stability RE. 8.15
